Entry source: paper PMC5312080

MIC in Mtb P3 V20A by entry:
System: DG70-resistant mutants of H37Rv
Assay type: cell-based, Mycobacterium tuberculosis

# example entries with known answers
# COMPOUND STRUCTURE, MIC in Mtb P3 V20A
data = [
    ("COc1ccc(-c2cc(NC(=O)c3ccc(F)cc3)ccc2OC)cc1", ">80 mg/L"),
    ("COc1ccc(NC(=O)c2ccc(F)cc2Cl)cc1", "40 mg/L"),
    ("COc1ccc(-c2cc(NCc3ccc(F)cc3Cl)ccc2OC)cc1", ">80 mg/L"),
    ("COc1ccc(-c2cc(N(C)C(=O)c3ccc(F)cc3Cl)ccc2OC)cc1", ">40 mg/L"),
]

-- ask Fill in: MIC in Mtb P3 V20A of `O=C(Nc1cccc(-c2ccccc2)c1)c1ccc(F)cc1Cl` is ___
-- reply >40 mg/L

-- ask Param item: `COc1ccc(-c2cc(NC(=O)c3ccccc3)ccc2OC)cc1`
-- reply >40 mg/L

----------
Test system: DG70-resistant mutants of H37Rv
Type: cell-based, Mycobacterium tuberculosis
MEASUREMENT NAME: MIC in Mtb P3 V20A

# example entries with known answers
# COMPOUND STRUCTURE, MIC in Mtb P3 V20A
records = [
    ("COc1ccc(-c2cc(NC(=O)c3ccc(F)cc3Cl)ccc2OC)cc1", ">80 µg/mL"),
    ("COc1ccc(NC(=O)c2ccc(F)cc2Cl)cc1-c1ccccc1", "40 µg/mL"),
    ("O=C(Nc1ccc(O)c(-c2ccc(O)cc2)c1)c1ccc(F)cc1Cl", ">40 µg/mL"),
]

-- ask Fill in: MIC in Mtb P3 V20A of `COc1ccc(-c2cc(NC(=O)c3ccccc3Cl)ccc2OC)cc1` is ___
-- reply >40 µg/mL

-- ask Param item: `COc1ccc(-c2cccc(NC(=O)c3ccc(F)cc3Cl)c2)cc1`
-- reply >80 µg/mL
